Data provenance: PubChem BioAssay (EPA / NIEHS)

# protocol_text: APR_HepG2_MitoMembPot_24hr: Apredica 24-hour HepG2 Assay for Mitochondrial Membrane Potential (AID 2282911)
# reported_conditions: imaging, actives raise or lower the signal
Active and inactive are the calls of the source. Rule for the calls: active = hit-call score of the fitted dose curve at least 0.9, where 1 is the maximum; inactive = score below 0.9.
Classes used: label 1 (active), label 0 (inactive)

compound=CC(C)=CCCC(C)=CC=O class_assignment="label 0"
compound=O=P(OC(CCl)CCl)(OC(CCl)CCl)OC(CCl)CCl class_assignment="label 0"
compound=Cc1[nH]cnc1C[C@H]1CCc2c(C)c3ccccc3n2C1=O class_assignment="label 0"
compound=CCN(C(=O)c1cc(C)cc(OC[C@H](C)Nc2ccncc2)c1)C(C)C class_assignment="label 0"
compound=C=CCCCCCCCCC(=O)O class_assignment="label 0"
compound=CCCN(C1CCN(C(=O)C2CCNCC2)CC1)[C@@H]1CCc2ccc(OC)cc2C1 class_assignment="label 0"
compound=COCCOCCOCCOC class_assignment="label 0"
compound=O=C1CCCCCN1 class_assignment="label 0"
compound=CN(C)c1ccc(Cc2ccc(N(C)C)cc2)cc1 class_assignment="label 1"
compound="CC(C)CC(C)(O)C#CC(C)(O)CC(C)C (stereo not given)" class_assignment="label 0"
